test: Displacement of [3H]-cytisine from nAChR in rat brain membranes; type: cell membranes
Attribute: IC50
quantity: IC50

molecule="CC(C)c1cc(C2=CCC[C@@H]3CC[C@H]2N3)on1 (racemic)" experimental_result="2.1 µM"
molecule="Cc1cc([C@@]2(O)CCC[C@@H]3CC[C@H]2N3)on1 (racemic)" experimental_result="> 10 µM"
molecule="CCc1cc(C2=CCC[C@@H]3CC[C@H]2N3)on1 (racemic)" experimental_result="0.0122 µM"
molecule="Cc1cc([C@]2(O)CCC[C@@H]3CC[C@H]2N3)on1 (racemic)" experimental_result="> 10 µM"
molecule=CN1CCC[C@H]1c1cccnc1 experimental_result="0.0047 µM"

The values you see were collected from ChEMBL document CHEMBL1821660.
